test system: MS2 coat protein; assay: apparent Kd, MS2 coat protein; higher = weaker binding; RNA-MaP array; conditions: designed as: OFF switch for tryptophan; no ligand
Tag: 1 if measured apparent Kd is not below 20 nM, -1 if it is.

# sequence chain, category label
measured = [
    ("CUCUUGGCCGCAGUACGUUUAUAGACCUAUCGAGGACCGGUACGGCCGCCACUCGGUUAGUCACAUGAGGAUCACCCAUGUGUCC", -1),
    ("ACGUUCGCGGUAUCCAACCGGUUGUACAAACGAGGACCGGUACGGCCGCCACUCGUGAUUGUACAUGAGGAUCACCCAUGUGGCA", -1),
]

Problem: Record GAUCCGUACCAGACCUUCAAUGGACUCAGUCGAGGACCGGUACGGCCGCCACUCGGAGAAGAACAUGAGGAUCACCCAUGUGAUG ; criterion: apparent Kd no lower than 20 nM. Met?
Result: 1

Problem: Exam item: decide whether the reported apparent Kd for UUGAUUACCCAAGCGUGAUGGUCCUAGGAACGAGGACCGGUACGGCCGCCACUCGCAAGCAAACAUGAGGAUCACCCAUGUUUAU is at least 20 nM.
Result: -1

Problem: Please indicate if the recorded apparent Kd for GUACCGUAAACGGCCGCCACUGACAUGAGGAUCACCCAUGUGCUGGUGGUGCACAACCUCAGGUUCAGGACCGGGUUUCCGAGCU meets or exceeds 20 nM.
Result: 1

Problem: Hi, just wondering whether AAACUGAUCUUCAGGAGUCACUAUAUCUCCCGAGGACCGGUACGGCCGCCACUCGAACGUUUACAUGAGGAUCACCCAUGUGACU shows apparent Kd of 20 nM or higher.
Result: -1

Problem: hey, is apparent Kd for this one >= 20 nM? UGUACCUGUAUCUGGUCCAUAGUAUAACCUCGAGGACCGGUACGGCCGCCACUCGUCGGACCACAUGAGGAUCACCCAUGUACCG
Result: -1

Problem: For this sequence, is measured apparent Kd 20 nM or higher? CUGCCACGAACGGCCGCCACUUACAUGAGGAUCACCCAUGUGCCUGCGCACAAAGAAUGUCAAGAAAGGACCGGGUUCAAAUAGU
Result: 1

Problem: Textbook exercise: given the entry CAAAAUGCGGCGGCCGCCACUCAGCUCCGUGUGGUUGGUCAUCUUAACAUGAGGAUCACCCAUGUGAGGACCGGGCCAGCGAGUG , state whether its apparent Kd is greater than or equal to 20 nM.
Result: -1
